Test system: F21T-K+ (human telomeric G-quadruplex, mixed parallel/hybrid)
Experimental Protocol: FRET melting assay, human telomeric G4 in potassium buffer
Type: binding
Run Parameters: 1 µM ligand, 200 nM DNA; PIPER and 3 not reliable (spectral overlap)
Below is a list of entries, each paired with its recorded ΔTm F21T-K+ value.
The reply should contain only the number, in °C.

Record excerpt, results attached:
{"columns": ["Molecule", "Readout Label", "Value Reported"],
 "data": [
  ["O=C1c2ccc3c4ccc5c6c(ccc(c7ccc(c2c37)C(=O)N1CCN1CCCCC1)c64)C(=O)N(CCN1CCCCC1)C5=O [PIPER, reference compound]", "ΔTm F21T-K+", 33],
  ["CN1CCN(CCCN2C(=O)c3ccc4c5ccc6c7c(ccc(c8ccc(c3c48)C2=O)c75)C(=O)N(CCCN2CCN(C)CC2)C6=O)CC1", "ΔTm F21T-K+", 10]
]}

ΔTm F21T-K+ for NCCOc1cc(C(=O)Nc2cc(OCCN)c3ccccc3n2)nc(C(=O)Nc2cc(OCCN)c3ccccc3n2)c1 [Pyridostatin, reference compound] ?
34

----------
Below is a list of entries, each paired with its recorded ΔTm Febr1T-K+ value.
Tested on: Febr1T-K+ (T. brucei G-quadruplex)
Experimental Protocol: FRET melting assay, T. brucei G4
Format: binding
Run Parameters: 1 µM ligand, 200 nM DNA; PIPER and 3 not reliable (spectral overlap)
The reply should contain only the number, in °C.

{"columns": ["Molecule", "Value Reported"],
 "data": [
  ["NCCOc1cc(C(=O)Nc2cc(OCCN)c3ccccc3n2)nc(C(=O)Nc2cc(OCCN)c3ccccc3n2)c1 [Pyridostatin, reference compound]", 29],
  ["CN1CCN(CCCNC(=O)c2ccc(Oc3ccc(C(C)(C)c4ccc(Oc5ccc(C(=O)NCCCN6CCN(C)CC6)c(C(=O)NCCCN6CCN(C)CC6)c5)cc4)cc3)cc2C(=O)NCCCN2CCN(C)CC2)CC1 [Compound 11]", 1],
  ["C[n+]1ccc(-c2c3nc(c(-c4cc[n+](C)cc4)c4ccc([nH]4)c(-c4cc[n+](C)cc4)c4ccc([nH]4)c(-c4cc[n+](C)cc4)c4nc2C=C4)C=C3)cc1 [TMPyP4, reference compound]", 32],
  ["O=C1c2ccc3c4ccc5c6c(ccc(c7ccc(c2c37)C(=O)N1CCN1CCCCC1)c64)C(=O)N(CCN1CCCCC1)C5=O [PIPER, reference compound]", 21]
]}

ΔTm Febr1T-K+ for CN1CCN(CCCN2C(=O)c3ccc4c5ccc6c7c(ccc(c8ccc(c3c48)C2=O)c75)C(=O)N(CCCN2CCN(C)CC2)C6=O)CC1 [Compound 3] ?
2

ΔTm Febr1T-K+ for CN1CCN(CCCN2C(=O)c3ccc4c5c(ccc(c35)C2=O)C(=O)N(CCCN2CCN(C)CC2)C4=O)CC1 [Compound 1] ?
7

ΔTm Febr1T-K+ for COc1cccc2c1C(=O)c1c(O)c3c(c(O)c1C2=O)C[C@@](O)(C(=O)CO)C[C@@H]3O[C@H]1C[C@H](N)[C@H](O)[C@H](C)O1 [Doxorubicin, reference compound] ?
5

meta.source: paper PMC8251916
